Please go through the items and note down their TGI.
Test system: LOX IMVI melanoma
Assay: NCI tumour cell line growth inhibition, 48 h
*1 amine or outer side, *2 acyl side, *3 side chain or, on linkers, in order; H or OH if unused. Where a SMILES comes first, the peptide text is derived from it. Bridges are numbered along the chain shown (N, C = ends). [ ]: non-standard residue; d: D form. Adda = CO[C@@H](Cc1ccccc1)[C@@H](C)/C=C(C)/C=C/[C@H](N[*:1])[C@H](C)C(=O)[*:2]; dAsp(3S-Me) = C[C@H](C(=O)[*:3])[C@@H](N[*:1])C(=O)[*:2]; d(γGlu) = O=C(O)[C@@H](CCC(=O)[*:2])N[*:1]; NMeDha = C=C(NC)C(=O)O

Fill in: TGI of O=C1CN2C(Cl)(Cl)C2(c2ccccc2)c2cc(Cl)ccc2N1CC1CC1 (stereo unspecified) is ___
31.6 µM

Value lookup for TGI; key = `Nc1ccc2c(c1)C(=O)N(OS(=O)(=O)c1ccccc1)C2=O`
> 100 µM

May I ask what TGI has been recorded for `CC(C)(CN1CCCCC1)C(/C=C/c1ccc(Cl)c(Cl)c1)=N\NC(=O)N/N=C(/C=C/c1ccc(Cl)c(Cl)c1)C(C)(C)CN1CCCCC1` ?
2.5 µM

Give the measured TGI of C=C1C(=O)N[C@H](C)C(=O)N[C@@H](CC(C)C)C(=O)N[C@@H](C(=O)O)[C@H](C)C(=O)N[C@@H](CCCN=C(N)N)C(=O)N[C@@H](/C=C/C(C)=C/[C@H](C)[C@H](Cc2ccccc2)OC)[C@H](C)C(=O)N[C@@H](C(=O)O)CCC(=O)N1C (R[Adda][d(γGlu)][NMeDha][dA]L[dAsp(3S-Me)]-OH; lactam N-7) .
> 5 µM

Using the record for `COP(=O)(OC)/C(=C/c1c[nH]c2ccccc12)C(=O)O` , report its TGI.
> 100 µM

Item under review: `Cc1ncc([N+](=O)[O-])n1CCNC(=O)CCCn1ccnc1[N+](=O)[O-]` . Reported TGI?
> 100 µM
